- protocol-description: Compound was tested for the inhibition of inducible murine macrophage nitric oxide(NO) synthase, activity expressed as inhibitory constant
endpoint-label: Ki
A bare number is not enough; add the unit after it.

| compound | Ki |
| --- | --- |
| CNC(=N)NCCC[C@H](N)C(=O)O [TILARGININE] | 4.2 µM |

Supply measured Ki of C=CC/N=C(/N)NCCC[C@H](N)C(=O)O [5-N-ALLYL-ARGININE] in your reply.
3.4 µM

Where do these numbers come from? They come from ChEMBL document CHEMBL1125412.
